Value source: the supplement of paper PMC11246515

RUN_DESCRIPTION: total protein half-life in vivo (active degradation + dilution); higher = more stable protein
STUDY_CONDITIONS: E. coli NCM3722 delta-clpP delta-lon delta-hslV; growth: N-lim chemostat; doubling time 6 h
PARAMETER: total protein half-life in vivo (h)
Numbers only, in h.

>>> recorded_result("MLIPWQDLSPETLENLIESFVLREGTDYGEHERTLEQKVADVKRQLQCGEAVLVWSELHETVNIMPRSQFRE")
5.2

# evaluate next
### Prompt Entry MAISIKGVNTGVIRKSNNFIALALKIKEPRNKESLFFMSVMELRDLLIALESRLHQKHKLDAAAHLQYEQARDKVIKKMAENIPEILVDELKNADINRRVNTLELTDNQGENLTFVLTLHDGSKCELVVNELQIEMLARAIIHAINNAEMRELALRITSLLDFLPLYDVDCQDNGNLEYDTYSQPEWKHNLFDHYLAVLYRFKDESGKEQFSGAVVKTREATPGKEIEAITRRMLDFSPRLKKLAGVPCQVYVRTVAANNAQPLTQDQCLRALHHLRVQSTSKTAPQAK : reported total protein half-life in vivo = ?
### Response 5.19
